target-entity: HDAC6 enzyme (Homo sapiens, UniProt Q9UBN7)
Construct: transducing full length HDAC6 gene into Sf-9 insect cells; GST; purchased SignalChem; host or cells: Sf-9 insect cells
Sequence (Q9UBN7 1-1215): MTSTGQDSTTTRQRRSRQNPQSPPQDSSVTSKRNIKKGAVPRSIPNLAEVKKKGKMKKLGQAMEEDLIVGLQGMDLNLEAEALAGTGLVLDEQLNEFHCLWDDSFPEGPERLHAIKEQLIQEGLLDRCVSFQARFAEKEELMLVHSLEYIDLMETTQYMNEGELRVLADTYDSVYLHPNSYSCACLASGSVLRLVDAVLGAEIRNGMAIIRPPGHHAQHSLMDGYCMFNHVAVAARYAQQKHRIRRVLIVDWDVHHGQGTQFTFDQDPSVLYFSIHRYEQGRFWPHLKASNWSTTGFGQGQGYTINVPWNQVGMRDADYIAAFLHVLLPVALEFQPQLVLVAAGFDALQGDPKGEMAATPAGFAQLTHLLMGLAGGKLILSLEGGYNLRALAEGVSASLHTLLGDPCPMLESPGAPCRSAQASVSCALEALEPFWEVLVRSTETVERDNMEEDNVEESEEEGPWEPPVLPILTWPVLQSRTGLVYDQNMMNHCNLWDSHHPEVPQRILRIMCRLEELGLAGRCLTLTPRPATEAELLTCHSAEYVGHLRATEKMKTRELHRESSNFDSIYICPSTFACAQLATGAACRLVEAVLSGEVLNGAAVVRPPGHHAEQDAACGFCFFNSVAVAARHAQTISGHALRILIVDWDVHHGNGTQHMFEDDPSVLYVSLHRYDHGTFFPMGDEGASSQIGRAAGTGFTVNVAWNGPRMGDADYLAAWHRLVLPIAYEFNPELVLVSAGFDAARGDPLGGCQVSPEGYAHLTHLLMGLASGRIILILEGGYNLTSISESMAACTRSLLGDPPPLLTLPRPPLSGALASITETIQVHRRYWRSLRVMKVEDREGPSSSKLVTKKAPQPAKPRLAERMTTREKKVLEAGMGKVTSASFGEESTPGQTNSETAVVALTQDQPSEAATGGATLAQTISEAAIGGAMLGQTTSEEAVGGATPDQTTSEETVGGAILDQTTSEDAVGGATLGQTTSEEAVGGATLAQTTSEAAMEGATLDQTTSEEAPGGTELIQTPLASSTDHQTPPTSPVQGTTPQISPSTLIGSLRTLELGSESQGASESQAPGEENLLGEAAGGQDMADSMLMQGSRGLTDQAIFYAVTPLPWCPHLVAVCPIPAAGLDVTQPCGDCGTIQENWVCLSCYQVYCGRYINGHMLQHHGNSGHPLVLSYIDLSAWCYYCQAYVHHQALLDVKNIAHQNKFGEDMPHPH
assay-details: HDAC6 enzyme inhibitory activity (HDAC-Glo I/II Assay kit)
Assay type: biochemical
assay-context: 10 μM; wells without enzyme = 100% inhibition; read-out: HDAC6 inhibitory rate (%) (10 μM)
quantity-kind: inhibition at 10 µM (%)

O=C1c2cc(-c3nnc(C(F)F)o3)cnc2CN1[C@@H]1COCC[C@H]1Oc1ccc(F)cc1 ... 99
O=C1c2cc(-c3nnc(C(F)F)o3)cnc2CN1Cc1cccc(C(F)(F)F)c1 ... 100
Cn1cc(C2=CCC(F)(F)CC2)c(N2Cc3ccc(-c4nnc(C(F)F)o4)cc3C2=O)n1 ... 99
O=C1c2cc(-c3nnc(C(F)F)o3)ccc2CN1[C@@H]1CN(C(=O)C(F)(F)C(F)(F)F)CC[C@H]1c1ccc(F)cc1 (racemic) ... 100
O=C(CC(F)(F)F)N[C@@H]1CCCC[C@H]1N1Cc2ccc(-c3nnc(C(F)F)o3)cc2C1=O ... 101
O=C1c2cc(-c3nnc(C(F)F)o3)ccc2CN1[C@@H]1CCC(F)(F)C[C@@H]1NC(=O)C(F)(F)C(F)(F)F ... 99
O=C1c2cc(-c3nnc(C(F)F)o3)ccc2CN1c1ccccc1-c1cccc(C(F)F)c1 ... 100
CC1CC1C(=O)N[C@@H]1CCCC[C@H]1N1Cc2ccc(-c3nnc(C(F)F)o3)cc2C1=O (stereo partly shown) ... 100
O=C(NCC(F)F)C1CC(F)(F)CCN1N1Cc2ccc(-c3nnc(C(F)F)o3)cc2C1=O (stereo not shown) ... 100
O=C1c2cc(-c3nnc(C(F)F)o3)ccc2CN1c1cccc(Cl)c1-c1cnn(C(F)F)c1 ... 100
O=C1c2cc(-c3nnc(C(F)F)o3)cnc2CN1Cc1cccc(F)c1F ... 99
Cn1cc(-c2cccc(C#N)c2)c(N2Cc3ccc(-c4nnc(C(F)F)o4)cc3C2=O)n1 ... 99
O=C1c2cc(-c3nnc(C(F)F)o3)ccc2CN1c1cccn2cc(C(F)(F)F)nc12 ... 73
O=C1c2cc(-c3nnc(C(F)F)o3)ccc2CN1C[C@H]1COCCN1 ... 85
O=C1c2cc(-c3nnc(C(F)F)o3)cnc2CN1Cc1ccccc1OCC(F)F ... 100
O=C(N[C@@H]1CCCC[C@H]1N1Cc2ccc(-c3nnc(C(F)F)o3)cc2C1=O)[C@@H]1C[C@H]1F (racemic) ... 101
